- Assay target: T1, human complement C2 (human, UniProt P06681 21-752)
- T1 construct: Recombinant full-length human C2 with C-terminal 8x His tag, purified from Expi293F supernatant; also called human C2; huC2
- T1 sequence: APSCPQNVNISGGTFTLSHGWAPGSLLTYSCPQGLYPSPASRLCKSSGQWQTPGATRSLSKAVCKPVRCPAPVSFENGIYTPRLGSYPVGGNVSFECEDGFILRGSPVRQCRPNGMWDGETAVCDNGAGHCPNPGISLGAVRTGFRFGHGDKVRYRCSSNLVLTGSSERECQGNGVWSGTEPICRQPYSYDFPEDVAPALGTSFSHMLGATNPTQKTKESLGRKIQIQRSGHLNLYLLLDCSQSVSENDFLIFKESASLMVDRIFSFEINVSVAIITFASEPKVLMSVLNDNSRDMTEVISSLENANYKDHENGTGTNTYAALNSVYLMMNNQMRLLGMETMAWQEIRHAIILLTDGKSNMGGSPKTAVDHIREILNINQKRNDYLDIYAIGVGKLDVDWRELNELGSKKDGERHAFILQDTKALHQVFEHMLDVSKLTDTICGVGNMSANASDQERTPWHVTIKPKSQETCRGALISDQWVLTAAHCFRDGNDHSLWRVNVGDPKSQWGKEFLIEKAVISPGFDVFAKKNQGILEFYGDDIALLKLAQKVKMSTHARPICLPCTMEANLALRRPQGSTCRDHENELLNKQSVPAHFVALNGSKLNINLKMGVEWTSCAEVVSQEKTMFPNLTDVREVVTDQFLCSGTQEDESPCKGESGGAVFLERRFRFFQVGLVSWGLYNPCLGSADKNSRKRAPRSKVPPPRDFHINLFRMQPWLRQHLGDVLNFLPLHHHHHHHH
- Assay overview: SPR, mAb captured, C2 analyte, MHAs buffer, pH 7.3

{"columns": ["Binder", "Kd"],
 "data": [
  ["RF16-214 (antibody, V domains shown) VH: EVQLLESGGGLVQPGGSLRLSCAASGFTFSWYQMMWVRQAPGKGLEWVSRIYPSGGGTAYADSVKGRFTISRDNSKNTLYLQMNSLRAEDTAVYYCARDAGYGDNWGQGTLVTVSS VL: QSALTQPPSVSVSPGQTASITCSGDKLGEKYASWYQQKAGQSPVMVIYQDRKRPSGIPERFSGSNSGNTATLTISGTQAMDEADYYCQAWDTRAVVFGGGTKLTVLG", "233 nM"],
  ["RF16-203 (antibody, V domains shown, Human antibody from a phage display library) VH: EVQLLESGGGLVQPGGSLRLSCAASGFTFSRYYMMWVRQAPGKGLEWVSSIGSSGGTTNYADSVKGRFTISRDNSKNTLYLQMNSLRAEDTATYYCAKGGMVLGVVNIWGQGTLVTVSS VL: QSALTQPPSVSVSPGQTATITCSGDKLGEKYVSWYQQKPGQSPVVVIFQDIKRPSGIPERFSGSNSGNTATLTISGTQAMDEADYYCQTWGTGGIQVFGGGTKLTVLR", "12.6 nM"],
  ["RF16-214G (antibody, V domains shown) VH: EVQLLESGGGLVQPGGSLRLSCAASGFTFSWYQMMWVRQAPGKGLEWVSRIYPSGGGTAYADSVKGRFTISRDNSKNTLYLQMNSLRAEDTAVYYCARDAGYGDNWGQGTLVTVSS VL: SYELTQPPSVSVSPGQTASITCSGDKLGEKYASWYQQKPGQSPVLVIYQDRKRPSGIPERFSGSNSGNTATLTISGTQAMDEADYYCQAWDTRAVVFGGGTKLTVLG", "176 nM"]
]}
